- study target: Prostaglandin E2 receptor EP2 subtype (Homo sapiens) (UniProt P43116)
- Sequence (P43116 whole entry, looked up): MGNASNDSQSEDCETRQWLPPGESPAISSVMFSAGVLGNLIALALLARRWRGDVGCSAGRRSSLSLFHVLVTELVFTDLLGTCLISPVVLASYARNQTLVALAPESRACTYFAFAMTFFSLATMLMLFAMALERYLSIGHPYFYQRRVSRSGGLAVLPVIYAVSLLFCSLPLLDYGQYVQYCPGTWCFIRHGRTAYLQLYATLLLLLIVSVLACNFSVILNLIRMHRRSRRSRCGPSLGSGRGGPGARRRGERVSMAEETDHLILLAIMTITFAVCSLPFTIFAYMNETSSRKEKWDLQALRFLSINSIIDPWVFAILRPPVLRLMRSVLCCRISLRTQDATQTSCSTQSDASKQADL
- test method notes: EP2 receptor modulators, dose response, cell-based, human EP2, PGE2 EC50 shift (AID 1421)
- condition description: EP2-expressing cells, PGE2 EC50 shift by compound; measured here: PGE2 EC50 at 6.7 uM compound
Exam item: assign 1 to entries whose PGE2 EC50 with compound is below 1 nM and 0 to entries at or above 1 nM. Note that a value of exactly 1 nM receives 0.

molecule	assigned class
Cc1ccc(N(Cc2ccccc2)Cc2ccccc2)cc1	0
Cn1c(=O)[nH]c(=O)c2c1nc(CN1CCN(c3cccc(Cl)c3)CC1)n2CCCc1ccccc1	0
Cc1nnc(SCC(=O)NC2CCCCC2)n1C1CCCCC1	0
CC(/C=C1\SC(=S)N(C(C(=O)O)C(C)C)C1=O)=C\c1ccccc1 (stereo unspecified)	1
Cc1ccccc1NC(=S)N(Cc1ccco1)C(C)c1cccs1 (stereo unspecified)	0
Fc1ccc(Oc2nc(-c3ccccc3)nnc2C(F)(F)F)cc1	1
O=C(CO/N=C/c1ccccc1)N1c2ccccc2Oc2ccccc21	0
CCC1COC(c2cccn2Cc2ccc(Cl)cc2)=N1 (stereo unspecified)	0
Cc1ccc(C)c(NC(=S)N(Cc2ccco2)C(C)c2cccs2)c1 (stereo unspecified)	1
CCOC(=O)c1c(NC(=O)c2ccoc2C)sc(C)c1C	1
COc1ccc(OC)c(-c2cnc(OC(C)(C)C)nc2OC(C)(C)C)c1	0
COc1ccccc1C(CC(=O)c1ccccc1)CC(=O)c1ccccc1	0
Cn1c(=O)c(NCCc2ccccc2)c2c3c(cccc31)C(=O)c1ccccc1-2	1
O=C1c2ccccc2OC2(C=Cc3ccccc3O2)N1Cc1ccccc1 (stereo unspecified)	1
O=C(Nc1ccccc1Br)c1ccccc1-c1ccccc1	0
O=c1cc(N2CCCCC2)c(-c2ccccc2)nn1Cc1ccccc1Cl	1
N#CC1=C(N)S[C@H](C(=O)C23CC4CC(CC(C4)C2)C3)[C@H]1c1ccncc1	1
COc1ccc(-c2nc(NC(C)=O)sc2-c2ccc(OC)cc2)cc1	1
O=C1C2C3c4ccccc4C(c4ccccc43)C2c2nc3ccccc3n21 (stereo unspecified)	0
O=C(O)c1nc2nc(Cl)c(Cl)nc2[nH]1	0
CCOC(=O)c1sc(NC(=O)CCN2CC(C)OC(C)C2)c(C(=O)OCC)c1C (stereo unspecified)	0
Cc1cccc(NC2=NC(=S)N(c3ccc(C(=O)O)cc3)C23CCCCC3)c1	1
N#CCSc1nc2ccccc2c(=O)n1C1CCCCC1	0
O=C(c1ccc2c(c1)OCO2)N(Cc1cccs1)C1(C(=O)NC2CCCCC2)CCCCC1	0
CCOC(=O)c1c(N)nn(C(=O)C(C)(C)C)c1-c1ccccc1	1
COc1ccc(C2=Nn3c(nnc3C3CCCCC3)SC2)cc1OC	0
COc1ccc(S(=O)(=O)N(Cc2cccs2)C2CCCC2)cc1	0
CCOc1nc(-c2ccccc2O)nc2ccccc12	0
COc1ccc(-c2noc(-c3ccccc3-c3ccccc3)n2)cc1OC	1
